tested on: glycogen synthase kinase-3 (GSK3A per assay name; protocol says GSK3B); experiment: GSK3 binders on small-molecule microarrays, primary screen, biochemical, small-molecule microarray, 635 nm fluorescence, GSK3A (AID 1103); conditions: small-molecule microarray binding, fluorescence 635 nm; higher = more signal; also: the record names both GSK3A and GSK3B
readout: composite z-score
Keep it simple and answer with nothing but the number.

Observe how each entry below is paired with its result.
COc1ccc([Si](C)(C)[C@H]2[C@H](CCn3cc([C@H](O)c4ccccc4)nn3)O[C@@]3(C(=O)N(Cc4ccc(N5C(=O)c6cccc7cccc5c67)cc4)c4ccccc43)[C@@H]2C)cc1 ... -0.509
O=C1NC(=O)C2C1C=CC(C(O)CCc1ccccc1)N2Nc1ccc(Cl)cc1Cl (stereo not given) ... 0.107
CC(C)C(=C=CC[C@H](O)c1cccc(OCCO)c1)C[C@H](O)c1cc(Cl)cc(Cl)c1O ... 0.0728

Query: composite z-score; subject: COC(=O)[C@@]1(Cc2ccc(OC)cc2)[C@@H]2C(=CC(=O)[C@H]2CC(=O)C(=O)N(C)C)CN1C(=O)c1ccccc1
1.07

CCCCO[C@H]1C[C@H]2C(I)=C[C@@H]1C(=O)[C@]21CO1 ?
-0.487

CCCCN1CC=CC23O[C@@H]4/C=C\CCC(C)OC(=O)C4[C@H]2C(=O)N(C(CO)C(C)C)[C@@H]3C1=O (stereo not given in full) ?
0.347

Cc1ccc(S[C@]2(C(=O)O)CC(=O)N(C3Cc4ccccc4C3)[C@@H]2c2ccc(CO)cc2)cc1 ?
-0.775

COC(=O)[C@H](Cc1ccccc1)N1CC(/C=C/C2CC2)=C[C@H]1[C@H](O)Cc1ccccc1 ?
0.368

O=C(NCC(F)(F)F)[C@@H]1c2ccccc2C(=O)N(Cc2cc(F)cc(C(F)(F)F)c2)[C@H]1c1ccc(CO)cc1 ?
-0.587

NCCCCCCNC(=O)[C@@H]1C[C@@H]2C(=O)N[C@@H](CCCCN)C(=O)N2[C@@H]1c1cccc(OCCO)c1 ?
0.543

C=C[C@@H](OC)[C@H](OC(=O)Nc1ccc(SC)cc1)c1ccc(O)c(F)c1 ?
0.288

* * *

target: Calmodulin-1 (Homo sapiens); test: CALM1 binders on microarrays, EGTA buffer, profiling panel, biochemical, small-molecule microarray, Cy5-labelled CALM1 (AID 1111); settings: Cy5-CALM1 binding fluorescence, higher = more signal;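 also: labelled calmodulin applied in Tris saline Tween buffer holding calcium plus EGTA and DTT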
Property: composite z-score; scope: individual molecules
Keep it simple and answer with nothing but the number.

Query: composite z-score; subject: COC(=O)[C@@]1(Cc2ccc(OC)cc2)[C@H]2c3cc(C(=O)N(C)C)n(CCO)c3C[C@H]2CN1C(=O)c1ccccc1
1.67

* * *

experiment: inhibitors of hydroxyurea-induced Chk1 phosphorylation, primary screen, imaging, HeLa, phospho-Chk1 nuclear intensity (AID 1187); conditions: hydroxyurea-induced phospho-Chk1 immunofluorescence imaging, higher = more signal; also: test concentration not given here
Output Satisfied for z-score not less than 0.3; output Not satisfied otherwise.

C#CCN([C@@H](Cc1ccc(O)cc1)C(=O)OC)[C@@H](/C=C/C1CC1)[C@H](O)Cc1ccccc1 ... Not satisfied

Could you verify whether the entry COC(=O)[C@@]1(Cc2ccccc2)[C@@H]2C(=CC(=O)[C@H]2CC(=O)C(=O)N(C)C)CN1C(=O)c1ccccc1 shows z-score of no less than 0.3?
Not satisfied

[N-]=[N+]=NCc1ccccc1[C@H]1OC(c2ccc(OCCCO)cc2)=N[C@@]1(CCS(=O)(=O)c1ccccc1)C(=O)N1CCCCC1 ?
Not satisfied

CN(C)CCCNC(=O)[C@@]1(c2ccc([N+](=O)[O-])cc2)CC(=O)N(CC23CC4CC(CC(C4)C2)C3)[C@@H]1c1ccc(CO)cc1I ?
Not satisfied

* * *

molecular target: Follistatin (Homo sapiens); assay: follistatin binders on small-molecule microarrays, primary screen, biochemical, small-molecule microarray, 635/667 nm fluorescence (AID 1132); conditions: FST binding, 635 nm fluorescence, higher = more signal
Output TRUE for composite z-score not less than 1; output FALSE otherwise.

// known answers, use as guide
C=CCC(OC(C)=O)[C@@H]1[C@@H](N(Cc2ccc(-c3ccccc3)cc2)C(=O)Cc2ccc(F)cc2)c2cc(OCCCO)ccc2N1C(=O)Cc1ccc(OC)cc1 (stereo not given in full) ... FALSE
CC(C)(C)OC(=O)CC[C@@]1(C(=O)NCc2ccccc2)N=C(c2ccc(OCCCO)cc2)O[C@@H]1c1ccccc1N=[N+]=[N-] ... TRUE
C=CCOC(=O)[C@H]1[C@@H]2C(=O)O[C@@H](c3ccccc3)[C@@H](c3ccccc3)N2[C@@H](c2ccc(OCCOC(=O)[C@@H]3C[C@@H]4C(=O)N[C@@H](CCCCN(C)C)C(=O)N4[C@@H]3c3ccc(O)cc3)cc2)[C@]12C(=O)Nc1ccccc12 ... TRUE
[N-]=[N+]=NCc1ccccc1C[C@]1(C(N)=O)N=C(c2ccc(OCCCO)cc2)O[C@H]1c1ccccc1 ... TRUE

Could you verify whether the entry Cc1ccc(S[C@]2(C(=O)NCCCN(C)C)CC(=O)N(C3CCCCC3)[C@@H]2c2ccc(CO)cc2)cc1 shows composite z-score of no less than 1?
FALSE

CCCCC(=C=CC[C@@H](O)c1ccccc1OCCO)C[C@@H](O)COCc1ccccc1 ?
FALSE

COCCCNC(=O)[C@@]1(Sc2ccc(C)cc2)CC(=O)N(C2CCCCC2)[C@@H]1c1ccc(CO)cc1 ?
FALSE

CCCCCCc1nc(C2CC2)cc2c1[Si](C(C)C)(C(C)C)O[C@H]2c1ccccc1 ?
FALSE

COc1ccc([Si](C)(C)[C@@H]2[C@@H](CC(=O)N(CCO)Cc3ccccc3)O[C@]3(C(=O)N(Cc4cccc(N5C(=O)c6cccc7cccc5c67)c4)c4ccccc43)[C@H]2C)cc1 ?
TRUE

* * *

target: NADPH oxidase 5 (Homo sapiens) (UniProt Q96PH1); test: NOX5-dependent H2O2 signal modulators, primary screen, NOX inhibitor project, cell-based, HEK293-NOX5, Amplex Red fluorescence (AID 1161); settings: HEK293-NOX5, ionomycin, 45 min, higher = more signal
Sequence (Q96PH1 whole entry, looked up): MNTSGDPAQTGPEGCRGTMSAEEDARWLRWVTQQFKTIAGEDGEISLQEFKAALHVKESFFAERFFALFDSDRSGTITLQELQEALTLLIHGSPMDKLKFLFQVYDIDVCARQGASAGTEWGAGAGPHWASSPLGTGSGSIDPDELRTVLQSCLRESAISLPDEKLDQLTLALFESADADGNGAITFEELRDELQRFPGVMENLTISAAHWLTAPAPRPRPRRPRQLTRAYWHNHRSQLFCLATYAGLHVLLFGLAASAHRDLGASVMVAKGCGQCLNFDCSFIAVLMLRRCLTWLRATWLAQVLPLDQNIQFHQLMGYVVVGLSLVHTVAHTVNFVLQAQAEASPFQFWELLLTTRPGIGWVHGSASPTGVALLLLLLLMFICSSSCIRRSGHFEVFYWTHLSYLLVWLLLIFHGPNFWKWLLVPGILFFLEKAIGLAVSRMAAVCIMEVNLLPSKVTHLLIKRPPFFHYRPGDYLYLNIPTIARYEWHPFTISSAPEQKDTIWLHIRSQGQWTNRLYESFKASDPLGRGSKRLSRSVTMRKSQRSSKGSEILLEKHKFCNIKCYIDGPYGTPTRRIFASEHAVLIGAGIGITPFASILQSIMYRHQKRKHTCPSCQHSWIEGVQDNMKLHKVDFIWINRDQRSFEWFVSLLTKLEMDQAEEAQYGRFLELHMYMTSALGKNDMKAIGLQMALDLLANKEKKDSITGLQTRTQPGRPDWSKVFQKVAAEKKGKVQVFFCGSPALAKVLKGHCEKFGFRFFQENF
Property: z-score; scope: individual compounds
Keep it simple and answer with nothing but the number.

Query: z-score; subject: O=C(CS)NCCCCCNC(=O)[C@@H]1C[C@@H]2C(=O)N3CCC[C@H]3C(=O)N2[C@@H]1c1cccc(OCCO)c1
-0.232

COc1ccc([Si](C)(C)[C@H]2[C@H](CCO)O[C@@]3(C(=O)N(Cc4cccc(N5C(=O)COc6ccccc65)c4)c4ccccc43)[C@@H]2C)cc1 ?
1.09

COc1cc2c(cc1OC)CN(C(=O)[C@@H]1[C@H]3C(=O)O[C@H](c4ccccc4)[C@H](c4ccccc4)N3[C@H](c3ccc(OCCO)cc3)[C@@]13C(=O)Nc1ccccc13)CC2 ?
1.03

C=C(/C(=C/C[C@H](OC(C)=O)c1cccc(OCCO)c1)c1cnc2ccccc2c1)C(C)C ?
-0.923

Cc1cc(C)cc(N2C(=O)CSC2c2cccc([N+](=O)[O-])c2)c1 (stereo not given) ?
0.483

CC(C)N1CC=CC23O[C@@H]4C=CCOC(=O)[C@@H]4[C@H]2C(=O)N(CCCO)[C@@H]3C1=O (stereo not given in full) ?
-1.36

COC(=O)[C@@]1(Cc2ccc(OC)cc2)[C@H]2c3cc(C(=O)N(C)C)n(CCO)c3C[C@H]2CN1C(=O)c1ccccc1 ?
-1.91

COC(=O)[C@H](Cc1ccccc1)N1CC(/C=C/C2CC2)=C[C@H]1[C@H](O)Cc1ccccc1 ?
-0.607

CN(C)C(=O)[C@@]1(CCS(=O)(=O)c2ccccc2)N=C(c2ccc(OCCCO)cc2)O[C@H]1c1ccccc1 ?
-0.948

COCCCNC(=O)[C@]1(CCS(=O)(=O)c2ccccc2)N=C(c2ccc(OCCCO)cc2)O[C@@H]1c1ccccc1N=[N+]=[N-] ?
-0.901

[N-]=[N+]=Nc1ccccc1C[C@]1(C(N)=O)N=C(c2ccc(OCCCO)cc2)O[C@H]1c1ccccc1N=[N+]=[N-] ?
-2.52

NC(=O)NCC#Cc1ccc2c(c1)[C@]1(C(=O)N2)[C@H](C(=O)O)[C@H]2C(=O)O[C@H](c3ccccc3)[C@H](c3ccccc3)N2[C@@H]1c1ccc(OCCO)cc1 ?
-0.0124

* * *

test system: Sonic hedgehog protein (Shh); assay: small-molecule binders of Shh protein, primary screen, biochemical, small-molecule microarray, 635/667 nm fluorescence (AID 1151); conditions: small-molecule microarray binding, 635 nm fluorescence; higher = more signal;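 also: Shh protein binding to compounds spotted on small-molecule microarray slides; score combines spot fluorescence intensity with signal-to-noise across triplicate slides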
Property: composite z-score; scope: individual compounds
Keep it simple and answer with nothing but the number.

Observe how each entry below is paired with its result.
C=C(C)c1cc2c(c(CCCCCC)n1)[Si](C(C)C)(C(C)C)OC2 ... -0.351
COc1ccc([Si](C)(C)[C@@H]2[C@@H](CCO)O[C@]3(C(=O)N(Cc4ccc(N5CCCCC5=O)cc4)c4ccccc43)[C@H]2C)cc1 ... 1.72
CN(C)CCCNC(=O)[C@@]1(C)c2ccccc2C(=O)N(Cc2ccccc2)[C@H]1c1ccc(CO)cc1 ... 0.498
COC(=O)[C@@]1(Cc2ccc(OC)cc2)[C@H]2c3cc(C(=O)N4CCCC4)n(Cc4cccc5ccccc45)c3C[C@H]2CN1C(=O)c1ccccc1 ... -0.338
COCCOC(=O)N1C(=O)[C@@]2(c3cc(C#CC4=CCCCC4)ccc31)[C@H](c1ccccc1OCCO)N1[C@H](c3ccccc3)[C@H](c3ccccc3)OC(=O)[C@H]1[C@@H]2C(=O)N1CCCCCCC1 ... 0.755

Look up composite z-score with Sonic hedgehog protein (Shh) for this compound: CO[C@H]1O[C@H](CO)[C@@H](OC(=O)Nc2ccccc2-c2ccccc2)[C@H](OC(=O)Nc2ccc3c(c2)OCO3)[C@H]1OC(=O)Nc1ccc2c(c1)OCO2
1.42

O=C1OCC=C[C@H]2OC34C=CCN(Cc5ccccc5)C(=O)[C@H]3N(CCCCCCO)C(=O)[C@@H]4[C@@H]12 (some centres undefined) ?
-0.289

COc1cccc(/C=C/C=O)c1 ?
0.0757

[N-]=[N+]=Nc1ccccc1C[C@]1(C(N)=O)N=C(c2ccc(OCCCO)cc2)O[C@H]1c1ccccc1N=[N+]=[N-] ?
-0.191

C=C(/C(=C/C[C@@H](OC(C)=O)c1cccc(OCCO)c1)c1cc(C(=O)OC)ccc1OC)C(C)C ?
1.73

CCOC(=O)C[C@H]1[C@H](OC(=O)c2cc3ccccc3oc2=O)[C@@H](NC(=O)Cc2ccc(OC)cc2)c2cc(OCCCO)ccc2N1C(=O)c1ccc2ccccc2n1 ?
0.479

C[C@]1(C(=O)NC2CC2)c2ccccc2C(=O)N(Cc2ccccc2)[C@H]1c1ccc(CO)cc1 ?
-1.3

COC(=O)[C@@]1(Cc2ccccc2)[C@H]2c3cc(C(=O)N(C)C)n(CCc4ccc(O)c(OC)c4)c3C[C@H]2CN1C(=O)c1ccccc1 ?
-0.0598

COc1ccc([Si](C)(C)[C@H]2[C@H](CC(=O)N(CCO)Cc3ccccc3)O[C@@]3(C(=O)N(Cc4cccc(N5CCOC5=O)c4)c4ccccc43)[C@@H]2C)cc1 ?
1.22
